# protocol.notes: protein stability index of a GFP-peptide fusion (yeast GPS) (PSI 1-4); higher = more stable; sorted into four equal gates, so the index is relative within each strain
# cond: pdr5∆
readout.label: protein stability index

Guide cases for protein stability index, answers given:
In: Consider the sequence WGTLQSVSPQMNAILTD [SMD1] and give its measured protein stability index.
Out: 2.66

In: Consider the sequence TLKLQDTRITPSKVSKI [PRE6] and give its measured protein stability index.
Out: 2.85

New cases:
In: Consider the sequence ETDHANTENNDPDIPMT [IRR1] and give its measured protein stability index.
Out: 2.59

In: Consider the sequence WVAPQESSHEQEEFVQF [ECM29] and give its measured protein stability index.
Out: 3.42

In: Consider the sequence PLPAVFSAPIRPDIVHT [RPL4A] and give its measured protein stability index.
Out: 2.35

In: Consider the sequence QVEKLGKKMEARGQSIW [RPN9] and give its measured protein stability index.
Out: 1.14

In: Consider the sequence ISIDSWPTTHKYPLGHF [DIS3] and give its measured protein stability index.
Out: 2.74

In: Consider the sequence FDMTNHYNDSQQLRTWK [SRB8] and give its measured protein stability index.
Out: 3.01

In: Consider the sequence KLILHAIHIFESYYNWK [YML103C/NUP188] and give its measured protein stability index.
Out: 1.45

In: Consider the sequence DNATLTELVDKANIFQV [SSN2] and give its measured protein stability index.
Out: 3.56

In: Consider the sequence AKILSQAPTELELQVAQ [RPS7A] and give its measured protein stability index.
Out: 2.75

In: Consider the sequence PAHTKYMLIEEAASSNK [ITC1] and give its measured protein stability index.
Out: 2.93

In: Consider the sequence ALKGPVRDKLDEYQAAV [DPB4] and give its measured protein stability index.
Out: 3.29

In: Consider the sequence CLSPGAFLSKVPEFFQT [SRP14] and give its measured protein stability index.
Out: 2.44
